Test system: PDC KRAS tumor spheroids with HUVEC/MSC, viability;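 also: spheroids exposed to compounds for seven days before readout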
Experiment: Anticancer human tumor 349418-098-R-PDC patient-derived lung adenocarcinoma cell line growth inhibition [KRAS2]
Settings: curve of first compound; second compound 0.316 µM
Could you mark each record satisfied if its IC50 falls strictly under 300 nM, and not satisfied if it equals or exceeds it?

Problem: Threshold test, IC50 < 300 nM: CCNC(=O)CC1N=C(c2ccc(Cl)cc2)c2cc(OC)ccc2-n2c(C)nnc21 (stereo not given) + CC1OCC2(CCN(c3cnc(Sc4ccnc(N)c4Cl)c(N)n3)CC2)C1N
Solution: satisfied

Problem: Threshold test, IC50 < 300 nM: CC(=O)OC12COC1CC(O)C1(C)C(=O)C(O)C3=C(C)C(OC(=O)C(O)C(NC(=O)OC(C)(C)C)c4ccccc4)CC(O)(C(OC(=O)c4ccccc4)C21)C3(C)C (stereo not given) + C=CC(=O)N1CCN(c2nc(OCC3CCCN3C)nc3c2CCN(c2cccc4cccc(C)c24)C3)CC1CC#N
Solution: satisfied

Problem: Threshold test, IC50 < 300 nM: CC(=O)OC12COC1CC(O)C1(C)C(=O)C(O)C3=C(C)C(OC(=O)C(O)C(NC(=O)OC(C)(C)C)c4ccccc4)CC(O)(C(OC(=O)c4ccccc4)C21)C3(C)C (stereo not given) + CC1OCC2(CCN(c3cnc(Sc4ccnc(N)c4Cl)c(N)n3)CC2)C1N
Solution: satisfied

Problem: Threshold test, IC50 < 300 nM: Cn1nccc1Nc1nccc(-c2cc3c(s2)C(C)(C)N(CCN2CCOCC2)C3=O)n1 + COc1cc2nc(C)nc(NC(C)c3cc(N)cc(C(F)(F)F)c3)c2cc1OC1CCOC1
Solution: satisfied

Problem: Threshold test, IC50 < 300 nM: CC1(C)CCC(CN2CCN(c3ccc(C(=O)NS(=O)(=O)c4ccc(NCC5CCOCC5)c([N+](=O)[O-])c4)c(Oc4cnc5[nH]ccc5c4)c3)CC2)=C(c2ccc(Cl)cc2)C1 + CNCc1ccccc1-c1csc(C(C)Nc2nc(C)nc3cc(OC)c(OC)cc23)c1
Solution: not satisfied

Problem: Threshold test, IC50 < 300 nM: CCNC(=O)CC1N=C(c2ccc(Cl)cc2)c2cc(OC)ccc2-n2c(C)nnc21 (stereo not given) + C=CC(=O)N1CCN(c2nc(=O)n(-c3c(C)ccnc3C(C)C)c3nc(-c4c(O)cccc4F)c(F)cc23)C(C)C1
Solution: satisfied

Problem: Threshold test, IC50 < 300 nM: CCN1CCN(Cc2ccc(Nc3ncc(F)c(-c4cc(F)c5nc(C)n(C(C)C)c5c4)n3)nc2)CC1 + COc1cc2nc(C)nc(NC(C)c3cc(N)cc(C(F)(F)F)c3)c2cc1OC1CCOC1
Solution: satisfied

Problem: Threshold test, IC50 < 300 nM: CC(C)n1nc(-c2ccc3oc(N)nc3c2)c2c(N)ncnc21 + C=CC(=O)N1CCN(c2nc(OCC3CCCN3C)nc3c2CCN(c2cccc4cccc(C)c24)C3)CC1CC#N
Solution: satisfied

Problem: Threshold test, IC50 < 300 nM: COc1cc(Nc2ncc3c(n2)-c2ccc(Cl)cc2C(c2c(F)cccc2OC)=NC3)ccc1C(=O)O + C=CC(=O)N1CCN(c2nc(=O)n(-c3c(C)ccnc3C(C)C)c3nc(-c4c(O)cccc4F)c(F)cc23)C(C)C1
Solution: satisfied

Problem: Threshold test, IC50 < 300 nM: O=C(c1cc(Cc2n[nH]c(=O)c3ccccc23)ccc1F)N1CCN(C(=O)C2CC2)CC1 + C=CC(=O)N1CCN(c2nc(OCC3CCCN3C)nc3c2CCN(c2cccc4cccc(C)c24)C3)CC1CC#N
Solution: not satisfied

Problem: Threshold test, IC50 < 300 nM: CC(=O)Nc1cccc(-n2c(=O)n(C3CC3)c(=O)c3c(Nc4ccc(I)cc4F)n(C)c(=O)c(C)c32)c1 + CC1OCC2(CCN(c3cnc(Sc4ccnc(N)c4Cl)c(N)n3)CC2)C1N
Solution: satisfied

Problem: Threshold test, IC50 < 300 nM: CC1COCCN1c1cc(-c2ccnn2C)c2ccnc(-c3ccn[nH]3)c2n1 (stereo not given) + CC1OCC2(CCN(c3cnc(Sc4ccnc(N)c4Cl)c(N)n3)CC2)C1N
Solution: satisfied

Problem: Threshold test, IC50 < 300 nM: CC(C)NCC(C(=O)N1CCN(c2ncnc3c2C(C)CC3O)CC1)c1ccc(Cl)cc1 (stereo not given) + C=CC(=O)N1CCN(c2nc(OCC3CCCN3C)nc3c2CCN(c2cccc4cccc(C)c24)C3)CC1CC#N
Solution: satisfied

Problem: Threshold test, IC50 < 300 nM: COc1cc(Nc2ncc3c(n2)-c2ccc(Cl)cc2C(c2c(F)cccc2OC)=NC3)ccc1C(=O)O + COc1cc2nc(C)nc(NC(C)c3cc(N)cc(C(F)(F)F)c3)c2cc1OC1CCOC1
Solution: satisfied

Problem: Threshold test, IC50 < 300 nM: CC1(C)CCC(CN2CCN(c3ccc(C(=O)NS(=O)(=O)c4ccc(NCC5CCOCC5)c([N+](=O)[O-])c4)c(Oc4cnc5[nH]ccc5c4)c3)CC2)=C(c2ccc(Cl)cc2)C1 + CC1OCC2(CCN(c3cnc(Sc4ccnc(N)c4Cl)c(N)n3)CC2)C1N
Solution: not satisfied

Problem: Threshold test, IC50 < 300 nM: O=C(c1cc(Cc2n[nH]c(=O)c3ccccc23)ccc1F)N1CCN(C(=O)C2CC2)CC1 + COc1cc2nc(C)nc(NC(C)c3cc(N)cc(C(F)(F)F)c3)c2cc1OC1CCOC1
Solution: not satisfied

Problem: Threshold test, IC50 < 300 nM: CC(=O)OC12COC1CC(O)C1(C)C(=O)C(O)C3=C(C)C(OC(=O)C(O)C(NC(=O)OC(C)(C)C)c4ccccc4)CC(O)(C(OC(=O)c4ccccc4)C21)C3(C)C (stereo not given) + COc1cc2nc(C)nc(NC(C)c3cc(N)cc(C(F)(F)F)c3)c2cc1OC1CCOC1
Solution: satisfied

Problem: Threshold test, IC50 < 300 nM: CC(=O)Nc1cccc(-n2c(=O)n(C3CC3)c(=O)c3c(Nc4ccc(I)cc4F)n(C)c(=O)c(C)c32)c1 + C=CC(=O)N1CCN(c2nc(=O)n(-c3c(C)ccnc3C(C)C)c3nc(-c4c(O)cccc4F)c(F)cc23)C(C)C1
Solution: satisfied
